Reported inhibition values follow for various molecules
# Test Description: human hepatoma cell viability loss – ATP luminescence, cytotoxicity control for P. falciparum antimalarial project, primary screen (AID 2303);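 further: 0% = DMSO wells and 100% = digitonin-killed cells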
# Condition Parameters: HepG2 viability, 24-48 h, at 10 µM, active compounds read high
Number in %, nothing else.

Below, 2 molecules whose answers are already recorded.
C=C[C@H]1CN(CCCCCCC)CC[C@H]1CC(=O)Nc1cnnc2ccc(OC)cc12; 12
O=C(N[C@@H](Cc1ccccc1)C(=O)NCc1cccc(C(F)(F)F)c1)c1ccc(O)c(-c2ccc(Cl)c(Cl)c2)c1; -13

Alright, here's another molecule for you.
// inhibition lookup, key: CCCCNC[C@@H](O)[C@H](Cc1ccccc1)NC(=O)c1cc2c3c(c1)c(CC)cn3CCS(=O)(=O)N2C -6
